- assay-notes: Leishmania major promastigote growth inhibition, primary screen (AID 1063);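 further: promastigotes grown with compound for 44 hours at 28 °C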
- assay-setup: Leishmania major promastigotes, resazurin fluorescence viability; at 10 µM
The campaign covered roughly 200,000 compounds. About 18,000 (9%) were called active. No stated cut-off is given here; in the data, active means inhibition above about 50%; inactive means the rest. Shown is part of a subset that was picked to be rich in actives.
Choose one outcome from this list and give only that: active, inactive

Past entries and their recorded results:
{"compound": "CC(O)c1cccc(NC(=O)Cc2cccc3ccccc23)c1 (stereo not given)", "group": "inactive"}
{"compound": "COc1ccc2[nH]c(=O)c(CNc3ccc(C)c(C)c3)cc2c1", "group": "active"}
{"compound": "Cc1cc(C)n(-c2ccc3nncn3n2)n1", "group": "inactive"}

query: Give the logged outcome of this assay for the following compound: COc1ccc(CNCCCO)cc1OC
result: inactive

query: Dear colleague, could you share the recorded outcome for COc1cccc2c(=O)n(CC(=O)N3CCCCCC3)ccc12 when you have a moment?
result: inactive

query: // outcome(item) with item = CCc1cccc2c(C=C(C#N)C#N)cn(CC(=O)N3CCCCC3)c12
result: active

query: I would be grateful if you could indicate the recorded call for CCOCCCNCc1ccc(OCc2ccc(F)cc2)c(OC)c1 .
result: active

query: Test call, this compound: CCC(CC)c1nnc(NC(=O)c2nn(C)c(=O)c3ccccc23)s1
result: inactive

query: Record lookup: outcome of this test for COc1ccc(NC(=O)c2ccccc2[N+](=O)[O-])cc1OC ?
result: active

query: Hi, sorry to bother you, what did the test record for COc1cccc(NC(=O)c2ccc(S(=O)(=O)N(C)C)cc2)c1 ?
result: inactive

query: Give the logged outcome of this assay for the following compound: COc1cc(CNCCN(C)C)ccc1OCc1c(F)cccc1Cl
result: active

query: Identify the outcome logged in this assay for the compound shown: COc1cc(CNc2ncn[nH]2)ccc1OCc1ccccc1C
result: inactive

query: Returns: the outcome recorded for COC(=O)CNC(=O)c1ccccc1[N+](=O)[O-] in this assay.
result: inactive

query: Tell me the assay call for Cc1ccccc1N1C(=O)C(Oc2ccc(Cl)cc2)C1CNCC1CCCO1 (stereo not given) please.
result: inactive

query: What did this assay record as the result for CN(CCc1cn[nH]c1)C(=O)CC1C(=O)NCCN1Cc1cccc(Oc2ccccc2)c1 (stereo not given) ?
result: inactive

query: Could you check what this test reported for COc1ccccc1NC(=O)C[n+]1ccccc1 ?
result: inactive

query: Just curious, what result did COc1ccccc1C(c1nnnn1CC1CCCO1)N1CCN(c2ccccc2)CC1 (stereo not given) get here?
result: inactive

query: Identify the outcome logged in this assay for the compound shown: CC(C)(C)C(=O)N(Cc1ccccc1)c1ccccn1
result: inactive

* * *

- assay-notes: Leishmania major promastigote growth inhibition, primary screen (AID 1063);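 further: promastigotes grown with compound for 44 hours at 28 °C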
- assay-setup: Leishmania major promastigotes, resazurin fluorescence viability; at 10 µM; active compounds read high
In all, about 200,000 compounds went through this assay and about 18,000 (9%) were called active. The entries come from a sample that favours actives as a whole.
Please respond with Criterion met when measured inhibition is strictly beneath 10%, and with Criterion not met in all other cases.

{"molecule": "COc1ccc(NC(=O)Nc2ccc3nsnc3c2)cc1", "group": "Criterion met"}
{"molecule": "CCc1ccccc1NC(=O)CSc1nnc(-c2ccncc2)o1", "group": "Criterion met"}
{"molecule": "CCOc1cc(C)c(Cl)cc1S(=O)(=O)n1nnc2ccccc21", "group": "Criterion met"}
{"molecule": "CN(c1ccccc1)S(=O)(=O)c1cccc(NC(=O)Cc2c(F)cccc2Cl)c1", "group": "Criterion not met"}
{"molecule": "COc1cc(/C=N/N=C(\\N)c2nonc2N)cc(OC)c1OC", "group": "Criterion not met"}

query: Please check: inhibition for CCOc1ccc(S(=O)(=O)n2ccnc2)c2ccccc12 , strictly under 10% or not?
result: Criterion met

query: Lab log: compare recorded inhibition with 10%; is it strictly lower for COc1cc(C)c(C(C)C)cc1S(=O)(=O)n1ccnc1 ?
result: Criterion not met

query: Would you kindly verify if inhibition of CC(C)C1Nc2c(C(=O)O)cccc2C(Nc2ccccc2C(=O)O)C1(C)C (stereo unspecified) is strictly less than 10%?
result: Criterion met

query: In plain terms, does Cc1ccc(NC(=O)Nc2ccc3oc(C)nc3c2)cc1 come in under 10% for inhibition?
result: Criterion met

query: Report whether reported inhibition is lower than 10% (strictly) for CN(c1ccccc1)S(=O)(=O)c1ccc(Cl)c(C(=O)OCC(N)=O)c1
result: Criterion met

query: inhibition under 10%? Item: O=C(Nc1ccc2ccccc2c1)Nc1ccc2snnc2c1
result: Criterion not met
